# measurement_description: E. coli DRC41 culture turbidity changes, primary screen, E. coli filamentation inducer project, strain DRC41, OD650, 48 h (AID 1152);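 also: E. coli MC1000 strain DRC41 lacking acrAB efflux pump and sulA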
# experimental_context: E. coli DRC41 (acrAB sulA), higher = more signal, called active from +8 up or from −8 down
Quick list: z-score per entry.
Number only, no unit.

compound	endpoint_result
COc1ccc([Si](C)(C)[C@@H]2[C@@H](CCn3cc([C@H](O)c4ccccc4)nn3)O[C@]3(C(=O)N(c4ccccc4)c4ccccc43)[C@H]2C)cc1	0.424
C=C(CCCC)C(=O)CC[C@H](OC(C)=O)c1ccc(OCCO)cc1	2.2
COCCCNC(=O)[C@@]1(c2ccc([N+](=O)[O-])cc2)CC(=O)N(C(C)C)[C@@H]1c1ccc(CO)cc1	0.569
CC(C)C[C@@H]1NC(=O)CNC(=O)[C@@]23C(=O)N[C@@H](Cc4ccccc4)C2[C@H](C)[C@@]2(C)O[C@H]2C3/C=C/C/C=C\CNC1=O (stereo partly specified)	-0.455
COCCOC(=O)N1C(=O)[C@@]2(c3cc(C#CC4=CCCCC4)ccc31)[C@H](c1ccc(O)cc1)N1[C@H](c3ccccc3)[C@H](c3ccccc3)OC(=O)[C@H]1[C@@H]2C(=O)NC[C@H](O)c1ccccc1	0.289

-- ask Data request, read-out z-score, for COCCOC(=O)N1C(=O)[C@@]2(c3cc(C#CC4(O)CCCCCC4)ccc31)[C@H](C(=O)N1CCN(c3ncccn3)CC1)[C@H]1C(=O)O[C@H](c3ccccc3)[C@H](c3ccccc3)N1[C@@H]2c1ccccc1OCCO
-- reply -0.53

###

# measurement_description: COS7 lysate on small-molecule microarray, probe aHis, 635 nm (AID 1123);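 also: z-score combines 667nm fluorescence intensity with signal-to-noise per printed compound spot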
# experimental_context: COS7 cell lysate, fluorescence, higher = more signal
parameter_measured: composite z-score
Number only, no unit.

molecule	composite z-score
C=C(C)C1CCC(C(O)C2C=CC3C(=O)N(C)C(=O)C3N2Nc2cc(OC)c(OC)c(OC)c2)CC1 (configuration not stated)	1.46
COCCOC(=O)N1C(=O)[C@@]2(c3cc(C#CCNC(N)=O)ccc31)[C@H](c1ccc(O)cc1)N1[C@H](c3ccccc3)[C@H](c3ccccc3)OC(=O)[C@H]1[C@@H]2C(N)=O	-0.157

-- ask Data request, read-out composite z-score, for COc1ccc([Si](C)(C)[C@@H]2[C@@H](CCn3cc([C@H](O)c4ccccc4)nn3)O[C@]3(C(=O)N(c4ccccc4)c4ccccc43)[C@H]2C)cc1
-- reply 0.233

###

Quick list: composite z-score per entry.
# Test system: Fibrinogen (Alexa647-labelled)
# measurement_description: fibrinogen binders on compound microarrays, profiling panel, artefact control for SMM control-protein annotation, biochemical, small-molecule microarray, 635/667 nm fluorescence (AID 1131);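 also: z-score merges 667 nm fluorescence with per-spot signal-to-noise over triplicate slides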
# experimental_context: fibrinogen-A647 binding fluorescence, higher = more signal
Number only, no unit.

molecule	composite z-score
CCOC(=O)C[C@H]1[C@H](OC(=O)c2ccccc2-c2ccccc2)[C@@H](NC(=O)c2ccc3ccccc3n2)c2cc(OCCCO)ccc2N1C(=O)c1ccccc1	0.322
C=CCNC(=O)[C@@H]1[C@H]2C(=O)O[C@H](c3ccccc3)[C@H](c3ccccc3)N2[C@H](c2ccc(O)cc2)[C@@]12C(=O)N(C(=O)OCCOC)c1ccc(C#CCCO)cc12	0.389

-- ask Data request, read-out composite z-score, for NC(=O)N1C(=O)C2C(C1=O)C1C=C(CCCO)C2C(C2CC2)N1Cc1cccc(OC(F)(F)F)c1 (stereo not drawn)
-- reply 0.948

-- ask Data request, read-out composite z-score, for COc1cc(NN2C(C(O)C3CCCCC3)C=CC3C(=O)N(c4ccccc4)C(=O)C32)cc(OC)c1OC (stereo not drawn)
-- reply 0.964

-- ask Data request, read-out composite z-score, for CC(C)[C@H]1NC(=O)[C@@]23C(=O)N[C@@H](Cc4ccccc4)C2[C@H](C)[C@@]2(C)O[C@H]2C3/C=C/CCC/C=C/CNC(=O)[C@H](Cc2ccccc2)NC1=O (stereo partly drawn)
-- reply -0.684
